- target.of.assay: beta-catenin/TCF4 engagement (Homo sapiens)
- Construct: expressed in transfected cells; host or cells: HEK293
- Sequence (P35222 1-781): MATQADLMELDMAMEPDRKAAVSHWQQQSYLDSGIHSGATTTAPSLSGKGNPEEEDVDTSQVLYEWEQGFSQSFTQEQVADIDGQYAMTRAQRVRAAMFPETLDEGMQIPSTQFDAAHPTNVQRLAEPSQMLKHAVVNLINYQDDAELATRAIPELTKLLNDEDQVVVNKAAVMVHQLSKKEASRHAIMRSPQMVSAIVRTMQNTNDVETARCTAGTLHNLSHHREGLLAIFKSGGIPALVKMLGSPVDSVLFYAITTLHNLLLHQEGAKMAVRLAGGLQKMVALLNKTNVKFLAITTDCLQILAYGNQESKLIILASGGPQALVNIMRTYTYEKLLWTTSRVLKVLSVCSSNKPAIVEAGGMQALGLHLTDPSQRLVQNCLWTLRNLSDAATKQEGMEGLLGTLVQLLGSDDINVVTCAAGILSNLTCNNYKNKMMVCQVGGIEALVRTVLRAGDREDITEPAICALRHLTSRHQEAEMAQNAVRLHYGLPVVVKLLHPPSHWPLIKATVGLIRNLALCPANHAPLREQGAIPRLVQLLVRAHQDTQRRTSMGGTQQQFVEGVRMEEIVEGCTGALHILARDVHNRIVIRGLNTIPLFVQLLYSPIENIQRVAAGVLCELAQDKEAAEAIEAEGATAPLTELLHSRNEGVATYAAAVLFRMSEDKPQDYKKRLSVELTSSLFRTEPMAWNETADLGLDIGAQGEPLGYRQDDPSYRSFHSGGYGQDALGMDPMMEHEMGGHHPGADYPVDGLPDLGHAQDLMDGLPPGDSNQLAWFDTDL
- measurement.protocol: Nano-BRET target engagement assay (B-cat-Halo & TCF4-Luc in HEK293 cells)
- Type: cell-based
- details: absolute IC50; read-out: NanoBRET Abs IC50
property.measured: pIC50
Give only the number. pIC50 is defined as minus log10 of concentration in molar units.

Solved cases (4 shown):
{"molecule": "CC(=O)N1CCC[C@]12CC=CCCCC1(CCCC=CCCCCCC[C@@](C)(C(=O)N[C@@H](Cc3ccccc3)C(=O)N[C@@H](Cc3csc4ccccc34)C(=O)N[C@@H](Cc3c[nH]cn3)C(N)=O)NC(=O)[C@H](CC(N)=O)NC(=O)[C@H](Cc3ccccc3)NC(=O)[C@H](C)NC(=O)[C@H](C)NC(=O)[C@H](CC(=O)O)NC(=O)[C@H](CC(=O)O)NC1=O)NC(=O)[C@H](CC(C)(C)C)NC(=O)[C@H](CC(=O)O)NC2=O (some centres unmarked) [I-582]", "observed.value": 4.80}
{"molecule": "CC(=O)N1CCC[C@]12CC=CCCCC1(CCCC=CCCCOC(=O)N3CC[C@@](C(=O)N[C@@H](Cc4ccccc4Cl)C(=O)N[C@@H](Cc4csc5ccccc45)C(=O)N[C@@H](CO)C(N)=O)(C3)NC(=O)[C@H]([C@@H](C)O)NC(=O)[C@H](Cc3ccccc3)NC(=O)[C@H](CC(C)C)NC(=O)[C@H](CC(C)C)NC(=O)[C@H](CC(=O)O)NC(=O)[C@H](CC(=O)O)NC1=O)NC(=O)[C@H](CC1CCCCC1)NC(=O)[C@H](CC(=O)O)NC2=O (some centres unmarked) [I-1152]", "observed.value": 4.85}
{"molecule": "CC(=O)N1CCC[C@]12CC=CCCCC1(CCCC=CCCCOC(=O)N3CC[C@@](C(=O)N[C@@H](Cc4ccsc4)C(=O)N[C@@H](Cc4csc5ccccc45)C(=O)N[C@@H](CO)C(N)=O)(C3)NC(=O)[C@H]([C@@H](C)O)NC(=O)[C@H](Cc3ccccc3)NC(=O)[C@H](C)NC(=O)[C@H](C)NC(=O)[C@H]([C@@H](C)O)NC(=O)[C@H](CC(=O)O)NC1=O)NC(=O)[C@H](CC(C)(C)C)NC(=O)[C@H](CC(=O)O)NC2=O (some centres unmarked) [I-1170]", "observed.value": 4.87}
{"molecule": "CC(=O)N1CCC[C@]12CC=CCCCC1(CCCC=CCCCOC(=O)N3CC[C@@](C(=O)N[C@@H](Cc4ccsc4)C(=O)N[C@@H](Cc4csc5ccccc45)C(=O)N[C@@H](CCC(N)=O)C(N)=O)(C3)NC(=O)[C@H](CC(N)=O)NC(=O)[C@H](Cc3ccccc3)NC(=O)[C@H](C)NC(=O)[C@H](C)NC(=O)[C@H](Cc3c[nH]c4ccccc34)NC(=O)[C@H](CC(=O)O)NC1=O)NC(=O)[C@H](CC(C)(C)C)NC(=O)[C@H](CC(=O)O)NC2=O (some centres unmarked) [I-1788]", "observed.value": 4.47}

Continue with the molecule presented below.
Consider the molecule CC(=O)N1CCC[C@]12CC=CCCCC1(CCCC=CCCCOC(=O)N3CC[C@@](C(=O)N[C@@H](Cc4ccccc4C(F)(F)F)C(=O)N[C@@H](Cc4csc5c(Cl)cccc45)C(=O)N[C@@H](CCC(N)=O)C(N)=O)(C3)NC(=O)[C@H](CC(C)C)NC(=O)[C@H](Cc3ccccc3)NC(=O)[C@H](C)NC(=O)[C@H](C)NC(=O)[C@H](Cc3cccc(C(=O)O)c3)NC(=O)[C@H](CC(=O)O)NC1=O)NC(=O)[C@H](CC(C)(C)C)NC(=O)[C@H](CC(=O)O)NC2=O (some centres unmarked) [I-2486] and give its measured pIC50. 5.43
